# pIC50 annotations
Target: stromelysin (MMP-3) (Homo sapiens, UniProt P08254)
Construct: enzymatic activity of the catalytic domains of human stromelysin and of neutrophil collagenase
Sequence (P08254 100-272 limits assumed): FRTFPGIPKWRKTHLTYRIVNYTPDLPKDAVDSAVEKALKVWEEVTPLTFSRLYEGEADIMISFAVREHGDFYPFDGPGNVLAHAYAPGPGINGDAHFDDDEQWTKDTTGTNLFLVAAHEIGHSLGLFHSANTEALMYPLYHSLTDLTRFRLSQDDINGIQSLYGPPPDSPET
Test: Enzyme inhibition of the catalytic domain of human stromelysin (fluorogenic substrate)
Details: 15 min preincubation, pH=6.5, fluorescence 328 nm (ex)/393 nm (em)
pIC50 is a log-scale quantity: -log10 of the concentration expressed in molar.

Sample records with pIC50:
# Compound, Test Result
records = [
    ("O=C(CCc1ccccc1)NCCC[C@H](NS(=O)(=O)c1ccc(-c2ccc(Cl)cc2)cc1)C(=O)O [Example 133]", 8.30),
    ("COc1cccc(OC)c1C(=O)NCCC[C@H](NS(=O)(=O)c1ccc(-c2ccc(Cl)cc2)cc1)C(=O)O [Example 139]", 7.30),
]

In: Give stromelysin (MMP-3) (Homo sapiens, UniProt P08254) pIC50 for O=C(CC(C(=O)O)c1ccccc1)NCCC[C@H](NS(=O)(=O)c1ccc(-c2ccc(Cl)cc2)cc1)C(=O)O (stereo partly shown) [Example 55]
Out: 8.15

In: Give stromelysin (MMP-3) (Homo sapiens, UniProt P08254) pIC50 for O=C(O)C(CCCN1C(=O)c2ccccc2C1=O)NS(=O)(=O)c1ccc(-c2ccccc2)cc1 (racemic) [Example 30]
Out: 7.52

----------
# IC50 annotations
Biological target: stromelysin (MMP-3) (Homo sapiens)
Construct: enzymatic activity of the catalytic domains of human stromelysin and of neutrophil collagenase
Assay: Enzyme inhibition of the catalytic domain of human stromelysin (fluorogenic substrate)
Conditions: 15 min preincubation, pH=6.5, fluorescence 328 nm (ex)/393 nm (em)
Note: unit nM is implicit; provide only the numeric part.

Sample records with IC50:
# Compound, Measurement Type, Reading Unit, Test Result
data = [
    ("O=C(/C=C/c1ccc(Cl)cc1)NCCC[C@H](NS(=O)(=O)c1ccc(-c2ccc(Cl)cc2)cc1)C(=O)O [Example 132]", "IC50", "nM", 30),
    ("CC(C)(C)OC(=O)NCCC[C@H](NS(=O)(=O)c1ccc(-c2ccc(Cl)cc2)cc1)C(=O)O [Example 14]", "IC50", "nM", 5),
]

In: Give stromelysin (MMP-3) (Homo sapiens) IC50 for O=C(NCCC[C@H](NS(=O)(=O)c1ccc(-c2ccc(Cl)cc2)cc1)C(=O)O)c1ccccc1O [Example 74]
Out: 10

In: Give stromelysin (MMP-3) (Homo sapiens) IC50 for O=C(NCCC[C@H](NS(=O)(=O)c1ccc(-c2ccc(Cl)cc2)cc1)C(=O)O)c1cccc(C(F)(F)F)c1 [Example 130]
Out: 20

In: Give stromelysin (MMP-3) (Homo sapiens) IC50 for O=C(O)[C@H](CCCn1sc2ccccc2c1=O)NS(=O)(=O)c1ccc(-c2ccc(Cl)cc2)cc1 [Example 114]
Out: 5

In: Give stromelysin (MMP-3) (Homo sapiens) IC50 for CN(CCC[C@H](NS(=O)(=O)c1ccc(-c2ccc(Cl)cc2)cc1)C(=O)O)C(=O)C1CC1 [Example 144]
Out: 10

In: Give stromelysin (MMP-3) (Homo sapiens) IC50 for COc1ccccc1C(=O)NCCC[C@H](NS(=O)(=O)c1ccc(-c2ccc(Cl)cc2)cc1)C(=O)O [Example 151]
Out: 30

----------
Biological target: stromelysin (MMP-3) (Homo sapiens)
Construct: enzymatic activity of the catalytic domains of human stromelysin and of neutrophil collagenase
Assay: Enzyme inhibition of the catalytic domain of human stromelysin (fluorogenic substrate)
Conditions: 15 min preincubation, pH=6.5, fluorescence 328 nm (ex)/393 nm (em)
Method: Preparation and determination of the enzymatic activity of the catalytic domains of human stromelysin and of neutrophil collagenase. The enzymes stromelysin (MMP-3) and neutrophil collagenase (MMP-8) were prepared according to Ye et al. (Biochemistry; 31 (1992) pages 11231-11235). […] After addition of 10 μl of a 10% strength (v/v) aqueous dimethyl sulfoxide solution which contains 1 mil/L of the substrates, the enzyme reaction is monitored by fluorescence spectroscopy (328 nm (ex)/393 nm(em)). […]
pIC50: −log10 of the molar value.
If the reported pIC50 equals or exceeds 8, assign true (1). If not, assign false (0).

In: Determine whether this compound has pIC50 no lower than 8: O=C(NCCC[C@H](NS(=O)(=O)c1ccc(-c2ccc(Cl)cc2)cc1)C(=O)O)c1ccc(O)cc1
Out: false (0)

In: Determine whether this compound has pIC50 no lower than 8: O=C(CC(C(=O)O)c1ccccc1)NCCC[C@@H](NS(=O)(=O)c1ccc(-c2ccc(Cl)cc2)cc1)C(=O)O (single isomer, unassigned) [Example 38]
Out: true (1)
